- target.or.system: human TrkB on CHO cells (CHO-K1-hTrkB/pSRE-Luc) (human) (UniProt Q16620)
- Sequence (Q16620 32-822): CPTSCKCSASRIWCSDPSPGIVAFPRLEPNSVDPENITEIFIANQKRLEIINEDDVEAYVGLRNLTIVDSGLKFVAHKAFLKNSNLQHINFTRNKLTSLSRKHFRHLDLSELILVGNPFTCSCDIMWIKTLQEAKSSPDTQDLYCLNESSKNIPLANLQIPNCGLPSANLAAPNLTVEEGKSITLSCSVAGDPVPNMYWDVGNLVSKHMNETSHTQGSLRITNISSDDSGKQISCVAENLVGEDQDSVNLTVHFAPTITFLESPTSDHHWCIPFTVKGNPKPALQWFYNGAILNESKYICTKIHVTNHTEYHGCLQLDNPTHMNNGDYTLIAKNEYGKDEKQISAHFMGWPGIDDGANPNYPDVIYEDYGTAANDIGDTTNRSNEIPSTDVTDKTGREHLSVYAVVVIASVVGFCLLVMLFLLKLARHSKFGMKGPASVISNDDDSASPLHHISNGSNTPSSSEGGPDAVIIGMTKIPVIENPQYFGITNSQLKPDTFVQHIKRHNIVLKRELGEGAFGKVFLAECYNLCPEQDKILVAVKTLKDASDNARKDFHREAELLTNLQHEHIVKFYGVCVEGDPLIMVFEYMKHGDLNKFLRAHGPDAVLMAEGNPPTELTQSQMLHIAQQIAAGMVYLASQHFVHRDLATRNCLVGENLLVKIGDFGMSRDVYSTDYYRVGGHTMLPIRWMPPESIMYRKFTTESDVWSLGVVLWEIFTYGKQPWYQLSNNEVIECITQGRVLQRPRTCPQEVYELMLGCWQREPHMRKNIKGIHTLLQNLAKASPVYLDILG
- assay.remarks: cell-based or functional assay
Give BDNF activity in TrkBluciferase assay, EC50 [nM] for every item shown.
Answers are plain numbers, in nM.

• pre-pro(His6-R54A)-BDNF(-RGR) (ligand) MTILFLTMVISYFGCMKAAPMKEANIHHHHHHAPMKEANIRGQGGLAYPGVRTHGTLESVNGPKAGSAGLTSLADTFEHVIEELLDEDQKVRPNEENNKDADLYTSRVMLSSQVPLEPPLLFLLEEYKNYLDAANMSMRVRRHSDPARRGELSVCDSISEWVTAADKKTAVDMSGGTVTVLEKVPVSKGQLKQYFYETKCNPMGYTKEGCRGIDKRHWNSQCRTTQSYVRALTMDSKKRIGWRFIRIDTSCVCTLTIK = 1.2

query: Suppose we examine the binder pre-pro-BDNF(-RGR)-opsin(L)-His6 (ligand) APMKEANIRGQGGLAYPGVRTHGTLESVNGPKAGSRGLTSLADTFEHVIEELLDEDQKVRPNEENNKDADLYTSRVMLSSQVPLEPPLLFLLEEYKNYLDAANMSMRVRRHSDPARRGELSVCDSISEWVTAADKKTAVDMSGGTVTVLEKVPVSKGQLKQYFYETKCNPMGYTKEGCRGIDKRHWNSQCRTTQSYVRALTMDSKKRIGWRFIRIDTSCVCTLTIKGSGNGTEGPNFYVPFSNATGVVRHHHHHH ; what BDNF activity in TrkBluciferase assay, EC50 [nM] value has been reported?
result: 0.3
